# Test system: progesterone receptor (PR)
# test.summary: Uterine progesterone receptor levels, hydroxyapatite assay (Example 8)
# Assay type: in vivo, female Sprague-Dawley rats
# measurement.parameters: Table 2: 50 μmol/kg + E-2 (2 × 10 μg/rat)
Catalogue of compounds with associated Progesterone Receptor Levels, Nuclear
Use fmol/mg protein as the unit, but write only the number.

Sample records with Progesterone Receptor Levels, Nuclear:
Asked: Endpoint output: Progesterone Receptor Levels, Nuclear of Cc1cc2c(cc1Cl)oc1c(Cl)cc(Cl)c(Cl)c12 . Value?
Given back: 399

Asked: Name the reported Progesterone Receptor Levels, Nuclear value associated with the compound Cc1cc(Cl)cc2c1oc1c(Cl)c(Cl)c(Cl)cc12
Given back: 1081

Asked: What Progesterone Receptor Levels, Nuclear value was documented for this compound, Cc1cc2c(cc1Cl)oc1cc(Cl)cc(Cl)c12 ?
Given back: 952

Others:
Asked: Data request, read-out Progesterone Receptor Levels, Nuclear, for Cc1cc(Cl)cc2c1oc1cc(Cl)c(Cl)cc12
Given back: 622

====

# Test system: estrogen receptor (ER)
# test.summary: Uterine estrogen receptor levels, hydroxyapatite assay (Example 8)
# Assay type: in vivo, female Sprague-Dawley rats
# measurement.parameters: dose-response, 50 μmol/kg + 17β-estradiol (2 × 10 μg/rat)
parameter: Estrogen Receptor Levels, Cytosolic (fmol/mg protein)
Quick reminder: number only, in fmol/mg protein, skip the unit.

Sample answers from the record:
Asked: # input molecule: Cc1cc2c(cc1Cl)oc1cc(Cl)c(Cl)cc12 ; wanted: its Estrogen Receptor Levels, Cytosolic
Given back: 107.1

Asked: Recorded Estrogen Receptor Levels, Cytosolic of Cc1cc2c(cc1Cl)oc1c(Cl)c(Cl)c(Cl)cc12 , please.
Given back: 114.9

Asked: Name the reported Estrogen Receptor Levels, Cytosolic value associated with the molecule Cc1cc(Cl)cc2c1oc1c(Cl)c(Cl)c(Cl)cc12
Given back: 71.0

Now look at this entry.
Asked: # get_value(readout='Estrogen Receptor Levels, Cytosolic', item= CCCc1cc(Cl)cc2c1oc1cc(Cl)cc(Cl)c12 )
Given back: 66.7

====

The entries below come with measured Estrogen Receptor Levels, Nuclear values attached.
# Test system: estrogen receptor (ER)
# test.summary: Uterine estrogen receptor levels, hydroxyapatite assay (Example 8)
# Type: in vivo, female Sprague-Dawley rats
# measurement.parameters: compound alone, 150 μmol/kg (17β-estradiol: 2 × 10 μg/rat), run B
Please state the figure in fmol/mg protein; there is no need to write the unit.

Asked: Give the measured Estrogen Receptor Levels, Nuclear of CC(C)c1cc(Cl)cc2c1oc1cc(Cl)cc(Cl)c12 .
Given back: 57.7

Asked: Can you look up the measured Estrogen Receptor Levels, Nuclear of CCc1cc(Cl)cc2c1oc1cc(Cl)cc(Cl)c12 for me?
Given back: 33.9

Asked: Query: Estrogen Receptor Levels, Nuclear; subject: CC(C)(C)c1cc(Cl)cc2c1oc1cc(Cl)cc(Cl)c12
Given back: 41.4

Others:
Asked: # get_value(readout='Estrogen Receptor Levels, Nuclear', item= CCCc1cc(Cl)cc2c1oc1cc(Cl)cc(Cl)c12 )
Given back: 35.4

====

# Tested on: progesterone receptor (PR)
# test.summary: Uterine progesterone receptor levels, hydroxyapatite assay (Example 8)
# Type: in vivo, female Sprague-Dawley rats
# measurement.parameters: dose-response, 50 μmol/kg + 17β-estradiol (2 × 10 μg/rat)
parameter: Progesterone Receptor Levels, Cytosolic (fmol/mg protein)
Give a bare numeral; the unit fmol/mg protein is implied.

Asked: Endpoint output: Progesterone Receptor Levels, Cytosolic of Cc1cc2c(cc1Cl)oc1c(Cl)c(Cl)c(Cl)cc12 . Value?
Given back: 1098

Asked: Query (compound): Cc1cc(Cl)cc2c1oc1c(Cl)c(Cl)c(Cl)cc12 ; field requested: Progesterone Receptor Levels, Cytosolic
Given back: 885

Asked: Fill in the blank: the reported Progesterone Receptor Levels, Cytosolic of CCCc1cc(Cl)cc2c1oc1cc(Cl)cc(Cl)c12 is ____.
Given back: 1105

Field: next compound
Asked: I'd like to know its Progesterone Receptor Levels, Cytosolic. The compound in question is Cc1cc2c(cc1Cl)oc1cc(Cl)c(Cl)cc12
Given back: 856
